Values were extracted from the RNAGym collection of RNA variant scans (doi:10.1093/nar/gkz1192).

B1: CPEB3 Ribozyme (parent)
chain: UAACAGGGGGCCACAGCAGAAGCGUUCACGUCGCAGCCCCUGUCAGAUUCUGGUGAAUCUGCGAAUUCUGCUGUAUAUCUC

variants of: B1; assay: self-cleavage, relative activity (ratio to wild type); higher = more cleavage; in vitro, sequencing

[
  {
    "SEQUENCE_DATA": "UAACAGGGGGCCACAGCAGAAGCGUUCACGUCGCAGCCCCUAUCAGAUUCUGGUGAAUCUGCGAACUCUGCUGUAUAUCUC [G42A U66C]",
    "self-cleavage": 0.38
  },
  {
    "SEQUENCE_DATA": "UAACAGGGGGCCACAGCAGAAGCGUUCACGGCGCAGCCCCUGUCAGAUUCUGGUGAAUCUGCGAGUUCUGCUGUAUAUCUC [U31G A65G]",
    "self-cleavage": 0.22
  },
  {
    "SEQUENCE_DATA": "UAACAGGGGGCCACAGCAGAAGCGUUCACGUCGCAGCCCCUGUCAGAUUCUGGUGAAUCUGCGAAUUCUGCUGUAUUUCUC [A77U]",
    "self-cleavage": 1.11
  },
  {
    "SEQUENCE_DATA": "UAACAGGGGGCCACUGCAGAAGCGUUCACGUCGCAGCCCCUGACAGAUUCUGGUGAAUCUGCGAAUUCUGCUGUAUAUCUC [A15U U43A]",
    "self-cleavage": 0.88
  },
  {
    "SEQUENCE_DATA": "UAACAGGGGGCCACAGCAGGAGCGUUCACGUCGCAGCCCCUUUCAGAUUCUGGUGAAUCUGCGAAUUCUGCUGUAUAUCUC [A20G G42U]",
    "self-cleavage": 0.22
  },
  {
    "SEQUENCE_DATA": "UAACAGGGGGCCACAGCAGAAGCGUUCACGUCGCAGCCCCUGUCUGAUUCUGGUGAAUCCGCGAAUUCUGCUGUAUAUCUC [A45U U60C]",
    "self-cleavage": 0.46
  },
  {
    "SEQUENCE_DATA": "UAACAGGGGGCCACAGCCGAAGCGUUCACGACGCAGCCCCUGUCAGAUUCUGGUGAAUCUGCGAAUUCUGCUGUAUAUCUC [A18C U31A]",
    "self-cleavage": 0.19
  },
  {
    "SEQUENCE_DATA": "UAACAGGCGGCCACAGCAGAAGCGUUCACGUCGCAGCCCCUGUCAGAUUCUGGUGAAUCUGCGUAUUCUGCUGUAUAUCUC [G8C A64U]",
    "self-cleavage": 0.22
  },
  {
    "SEQUENCE_DATA": "UAACAGGGGGCCACAGCAGGAGCGUUCACGUCGCAGCCCCUGUCAGAUUCUGGUGAAUCUGCGAACUCUGCUGUAUAUCUC [A20G U66C]",
    "self-cleavage": 0.37
  },
  {
    "SEQUENCE_DATA": "UAACAGGGGGCCACAGCAGAAGCGUUCGCGUCGCAGCCCCUGUCAGAUUCUGGUGAAUCUGCGAAUUCUGCUGUAUCUCUC [A28G A77C]",
    "self-cleavage": 0.58
  },
  {
    "SEQUENCE_DATA": "UAACAGGGGGCCACAGCAGAAGCGAUCACGUCGCAGCCCCUGUAAGAUUCUGGUGAAUCUGCGAAUUCUGCUGUAUAUCUC [U25A C44A]",
    "self-cleavage": 0.17
  },
  {
    "SEQUENCE_DATA": "UAACAGGGGGCCACAGCAGAAGCGUUCACGUCGCAGUCCCUGUCAGAUUCUGGUGAAUCUGCGAAUUCUGCAGUAUAUCUC [C37U U72A]",
    "self-cleavage": 0.27
  },
  {
    "SEQUENCE_DATA": "UAACCUGGGGCCACAGCAGAAGCGUUCACGUCGCAGCCCCUGUCAGAUUCUGGUGAAUCUGCGAAUUCUGCUGUAUAUCUC [A5C G6U]",
    "self-cleavage": 0.32
  },
  {
    "SEQUENCE_DATA": "UAACAGGGGGCCACAGCAGUAGCGUUCACGUCGCAGCCCCUGUCAGAUUCUGGUGAAUCUGCGAAUUCUGCUGUACAUCUC [A20U U76C]",
    "self-cleavage": 0.36
  },
  {
    "SEQUENCE_DATA": "UAACAGGGGGCCACAGCAGAAGCGUUCACGUCGCAGCCCCUGUCAGAUUCUGGUGAAUCUGCGAAUUCGGCUGUAUAACUC [U69G U78A]",
    "self-cleavage": 0.45
  },
  {
    "SEQUENCE_DATA": "UAACAGGGGGCCACAGCAGAAGCGUUCACGUCGCAGCCCCUGUCAGAUUCUGGUGAAUUUGCGUAUUCUGCUGUAUAUCUC [C59U A64U]",
    "self-cleavage": 0.25
  },
  {
    "SEQUENCE_DATA": "UAACAGGGGGCCACAGCAGAAGCGUUCACGUCGCAGCCCCUGUCAGACUCUGGUGAAUCUGCGAAUUCGGCUGUAUAUCUC [U48C U69G]",
    "self-cleavage": 0.36
  },
  {
    "SEQUENCE_DATA": "UAACAGGGGGCCACAGCAGAUGCGUUCACGUCGCAGCCCCUGUCAGAUUCUGGUGAAUCUGCGAAUUCCGCUGUAUAUCUC [A21U U69C]",
    "self-cleavage": 0.26
  },
  {
    "SEQUENCE_DATA": "UAACAGGGGGCCACAGCAGAAGCGUACACGUCGCAGCCCCUGGCAGAUUCUGGUGAAUCUGCGAAUUCUGCUGUAUAUCUC [U26A U43G]",
    "self-cleavage": 0.33
  },
  {
    "SEQUENCE_DATA": "UAACAGUGGGCCACAGCAGAAGCGUUCACGUCGCAGCCCCUGUCAGAUUCUGGUGAAUCUGCGAAUUCAGCUGUAUAUCUC [G7U U69A]",
    "self-cleavage": 0.2
  },
  {
    "SEQUENCE_DATA": "UAACAGGGGGCCACAGCAGACGCGUUCACGUCGCAGCCCCUGUCAGAUUCUGGCGAAUCUGCGAAUUCUGCUGUAUAUCUC [A21C U54C]",
    "self-cleavage": 0.23
  },
  {
    "SEQUENCE_DATA": "UAAUAGGGGGCCACAGCAGAAGCGUUCACGUCGCAGCCCCUGUCAGAUUCUGGUGAAUCAGCGAAUUCUGCUGUAUAUCUC [C4U U60A]",
    "self-cleavage": 0.95
  },
  {
    "SEQUENCE_DATA": "UAACAGGGGGCCACAGCAGGAGCGUUCACGUCGCAGCCCCUGUCAGAUUCUGGUGAAUCUGCGAAUUCUGCUUUAUAUCUC [A20G G73U]",
    "self-cleavage": 1.19
  },
  {
    "SEQUENCE_DATA": "UAACAGGGGGCCACAGCAGAAGCGUUCACGUCGCAGCUCCUGUCAGAUUCAGGUGAAUCUGCGAAUUCUGCUGUAUAUCUC [C38U U51A]",
    "self-cleavage": 0.46
  },
  {
    "SEQUENCE_DATA": "UAACCGGGGGCCACAGCAGAAGCGUUCACGUCGCAGCCCCUGUCAGAUUCUGGUGAAUCUGCGAGUUCUGCUGUAUAUCUC [A5C A65G]",
    "self-cleavage": 0.44
  },
  {
    "SEQUENCE_DATA": "UAACAGGGGGCCACAGCAGAAGCGUCCACGUCGCCGCCCCUGUCAGAUUCUGGUGAAUCUGCGAAUUCUGCUGUAUAUCUC [U26C A35C]",
    "self-cleavage": 0.32
  },
  {
    "SEQUENCE_DATA": "UAACAGGGGGCCACAGCAGAAGCGUUCACGUCGCUGCCCCUGUCUGAUUCUGGUGAAUCUGCGAAUUCUGCUGUAUAUCUC [A35U A45U]",
    "self-cleavage": 0.32
  },
  {
    "SEQUENCE_DATA": "UAACAGGGGGCCACAGCAGGAGCGUUCACGUCGCAGCCCCUGUCAGAUUCUGGUGAAUCUGUGAAUUCUGCUGUAUAUCUC [A20G C62U]",
    "self-cleavage": 0.2
  },
  {
    "SEQUENCE_DATA": "UAACAGGGGGCCACAGCAGAAGCGUUCACGUCGCAGCCCCUGUCAGAUUCUGGUGAAUCUGCGAACUCUGCUAUAUAUCUC [U66C G73A]",
    "self-cleavage": 0.81
  },
  {
    "SEQUENCE_DATA": "UAACAGGGGGCCACAGCGGAAGCGUUCACGUCGCAGCCCCUGUCAGAUUCUGGUGAAUCUGCGAAUUCUGCUGUAUAUUUC [A18G C79U]",
    "self-cleavage": 0.9
  },
  {
    "SEQUENCE_DATA": "UAACAGGGGGCCACAGCAGAAGCGUUCGCGUCGCAGCCCCUGUCAGAUUCUAGUGAAUCUGCGAAUUCUGCUGUAUAUCUC [A28G G52A]",
    "self-cleavage": 0.76
  },
  {
    "SEQUENCE_DATA": "UAACAGGGGGCCACAUCAGAAGCUUUCACGUCGCAGCCCCUGUCAGAUUCUGGUGAAUCUGCGAAUUCUGCUGUAUAUCUC [G16U G24U]",
    "self-cleavage": 0.11
  },
  {
    "SEQUENCE_DATA": "UAACGGGGGGCCACCGCAGAAGCGUUCACGUCGCAGCCCCUGUCAGAUUCUGGUGAAUCUGCGAAUUCUGCUGUAUAUCUC [A5G A15C]",
    "self-cleavage": 0.83
  },
  {
    "SEQUENCE_DATA": "UAACAGGGGGGCACAGCAGAAGCGUUCACGUCGCAGCCCCUGUCAGAUUCUGGUGAAUCUGCGAAUUCUACUGUAUAUCUC [C11G G70A]",
    "self-cleavage": 0.26
  },
  {
    "SEQUENCE_DATA": "UAACAGGGGGCCACAGCAGAAGCGUUCACGUCGCAGCCCCUGUCAGAUUCUGGUGAAUCUGCGAAUUCUGCUGUAAAGCUC [U76A U78G]",
    "self-cleavage": 1.37
  }
]
